Parameter Plant response rating: Field Violet: see the listing below.
tested on: field violet; assay: Test D postemergence; assay type: in vivo, Viola arvensis; details: 62 g ai/ha, scale 0 to 100
OBSERVABLE: Plant response rating: Field Violet

> print(dat)
                                        mol  measured.value
1  CCOc1nc(-c2ccc(F)cc2)nn1Cc1ccnc(C(F)(F)F)c1              75
2  CCOc1nc(-c2ccc(C(F)(F)F)cc2)nn1Cc1ccnc(C(F)(F)F)c1             100
3  COc1nc(-c2ccc(Cl)cc2)nn1Cc1ccnc(C(F)(F)F)c1             100
4  CCc1nc(-c2ccc(C(F)(F)F)cc2)nn1Cc1ccnc(C(F)(F)F)c1             100

----------
test system: kochia; experiment: Test A postemergence; format: in vivo, Kochia scoparia; settings: 125 g ai/ha, 0 to 100 scale (0 no effect, 100 complete control), approx. 10 d
OBSERVABLE: Plant response rating, Kochia

> print(dat)
                                    compound  experimental.target                     observable  measured.value
 1  CCOc1nc(-c2ccc(C(F)(F)F)cc2)nn1Cc1ccnc(C(F)(F)F)c1 [Compound 35]               kochia  Plant response rating, Kochia              90
 2  COc1nc(-c2ccc(C(F)(F)F)cc2)nn1Cc1ccnc(C(F)(F)F)c1 [Compound 25]               kochia  Plant response rating, Kochia              90
 3  CCOc1nc(-c2ccc(Cl)cc2)nn1Cc1ccnc(C(F)(F)F)c1 [Compound 26]               kochia  Plant response rating, Kochia              90
 4  CCOc1nc(-c2ccccc2)nn1Cc1ccnc(C(F)(F)F)c1 [Compound 27]               kochia  Plant response rating, Kochia              90
 5  Cc1nc(-c2ccc(F)cc2)nn1Cc1ccnc(C(F)(F)F)c1 [Compound 38]               kochia  Plant response rating, Kochia              90
 6  COc1nc(-c2ccccc2)nn1Cc1ccnc(C(F)(F)F)c1 [Compound 32]               kochia  Plant response rating, Kochia              80
 7  CCCOc1nc(-c2ccc(C(F)(F)F)cc2)nn1Cc1ccnc(C(F)(F)F)c1 [Compound 41]               kochia  Plant response rating, Kochia              90
 8  Cc1nc(-c2ccc(Br)cc2)nn1Cc1ccnc(C(F)(F)F)c1 [Compound 36]               kochia  Plant response rating, Kochia              90
 9  Fc1ccc(-c2nc(OCC(F)(F)F)n(Cc3ccnc(C(F)(F)F)c3)n2)cc1 [Compound 30]               kochia  Plant response rating, Kochia              90
10  COc1nc(-c2ccc(OC(F)(F)F)cc2)nn1Cc1ccnc(C(F)(F)F)c1 [Compound 40]               kochia  Plant response rating, Kochia               0
11  CCc1nc(-c2ccncc2)nn1Cc1ccnc(C(F)(F)F)c1 [Compound 39]               kochia  Plant response rating, Kochia              70
